target: Tyrosine-protein kinase ABL1 (Homo sapiens)
experiment-description: ABL1 kinase (ABL1-N-HiBiT) SDR gain of signal screen
condition-set: Purified ABL1-N-HiBiT enzyme, Nano-Glo HiBiT luminescence, 30 min compound incubation; series mostly up to 32.9 µM
Results filed as inconclusive are left out. The source made the active and inactive calls. Calls come from the whole dose curve.
Labels: Yes (active), No (inactive)

[[record]]
substance_smiles = "CN1CCN(Cc2ccc(-c3cnc4[nH]cc(-c5ccc6[nH]ccc6c5)c4c3)cc2)CC1"
discrete_label = "Yes"

[[record]]
substance_smiles = "C=CC(=O)Nc1cccc(Oc2nc(Nc3ccc(N4CCN(C)CC4)cc3OC)ncc2Cl)c1"
discrete_label = "No"

[[record]]
substance_smiles = "COc1ccc(CNC(=O)Nc2ncc([N+](=O)[O-])s2)cc1"
discrete_label = "No"

[[record]]
substance_smiles = "Cc1[nH]nc2ncc(C(=O)N3CCC[C@H]3c3ccc(Cl)cc3)cc12"
discrete_label = "No"

[[record]]
substance_smiles = "Cc1[nH]c2ccccc2c1C1=C(NCCc2ccc(F)cc2)C(=O)N(C)C1=O"
discrete_label = "No"

